FYI, the data here is from patent US8895585B2.

- Tested on: THP-1 cells
- assay procedure: TNFα generation assay
- Type: cell-based, human
- applied conditions: Homo sapiens, THP-1, THP-1 cells; Table 22; read-out: IC50 in TNFα generation assay
value type: IC50

[
  {
    "molecule": "CC(C)C[C@@H](Nc1nc(Nc2ccc3ncccc3c2)c(C(N)=O)cc1F)C(N)=O [Example 012-009]",
    "result": "0.065 to 0.13 µM"
  },
  {
    "molecule": "CCCC[C@@H](Nc1nc(Nc2ccc3ncccc3c2)c(C(N)=O)cc1F)[C@H](C)N [Example 006-208]",
    "result": "0.065 to 0.13 µM"
  },
  {
    "molecule": "CCOCCOCCn1cc2cc(Nc3nc(N[C@@H]4CCCC[C@@H]4N)c(F)cc3C(N)=O)ccc2n1 (relative stereo) [Example 004-095]",
    "result": "0.13 to 0.2 µM"
  },
  {
    "molecule": "Cn1ncc2cc(Nc3nc(N[C@@H](CN)CC4CC4)c(F)cc3C(N)=O)ccc21 [Example 006-282]",
    "result": "< 0.065 µM"
  },
  {
    "molecule": "N#Cc1ccc(-c2cncc(Nc3nc(NC4CCCCC4N)c(F)cc3C(N)=O)c2)cc1 (stereo not drawn) [Example 002-173]",
    "result": "0.13 to 0.2 µM"
  },
  {
    "molecule": "CCS(=O)(=O)Nc1cccc2cc(Nc3nc(N[C@@H]4CCCC[C@@H]4N)c(F)cc3C(N)=O)cnc12 (relative stereo) [Example 41-12]",
    "result": "0.13 to 0.2 µM"
  },
  {
    "molecule": "CC(C)C[C@@H](Nc1nc(Nc2ccc3c(c2)c(F)nn3C)c(C(N)=O)cc1F)[C@H](C)N [Example 006-511]",
    "result": "< 0.065 µM"
  },
  {
    "molecule": "NC(=O)c1cc(F)c(N[C@@H]2CCCC[C@@H]2N)nc1Nc1cncc2ccccc12 [Example 37-2]",
    "result": "< 0.065 µM"
  },
  {
    "molecule": "C[C@H](N)[C@@H](C)Nc1nc(Nc2ccc3ncccc3c2)c(C(N)=O)cc1F (racemic) [Example 39-1]",
    "result": "< 0.065 µM"
  },
  {
    "molecule": "COc1cc(Nc2nc(N[C@H](C3CC3)[C@H](C)N)c(F)cc2C(N)=O)cc(OC)n1 [Example 006-429]",
    "result": "0.065 to 0.13 µM"
  },
  {
    "molecule": "NC(=O)c1cc(F)c(NC2CCCCC2N)nc1Nc1cncc(NC(=O)c2cccc(F)c2F)c1 (stereo not drawn) [Example 027-030]",
    "result": "0.13 to 0.2 µM"
  },
  {
    "molecule": "NC(=O)c1cc(F)c(N[C@@H]2CCCC[C@@H]2N)nc1Nc1ccnc2c1ccn2CCN1CCCCC1 [Example 004-029]",
    "result": "0.13 to 0.2 µM"
  },
  {
    "molecule": "NC(=O)c1cc(F)c(N[C@H](Cc2ccccc2)C(N)=O)nc1Nc1ccnc2c1ccn2CC1CC1 [Example 004-046]",
    "result": "0.13 to 0.2 µM"
  },
  {
    "molecule": "COc1cccc(-c2cncc(Nc3nc(N[C@@H](CN)CC(C)C)c(F)cc3C(N)=O)c2)c1F [Example 006-318]",
    "result": "0.13 to 0.2 µM"
  },
  {
    "molecule": "CCC[C@@H](Nc1nc(Nc2ccc3nc(OCCOC)ccc3c2)c(C(N)=O)cc1F)[C@H](C)N [Example 006-303]",
    "result": "0.13 to 0.2 µM"
  }
]
